Tested on: K562 CRISPRi cells
Test: Perturb-seq pooled growth measurement (sgRNA counts, growth phenotype γ, relative activity)
Type: cell-based, human
Settings: sequencing read counts; 10 days of growth (day twelve after transduction)
Entry class follows Perturb-seq pooled growth sgRNA counts, d10: bucket 1 = under 2000, bucket 2 = from 2000 up to 6000, bucket 3 = 6000 and over

SUBSTANCE: RPS14_+_149829238.23-P1P2_01: sgRNA targeting RPS14, GAGACCCGGGCGCGACAATC, SEQ ID NO: 46 (listed as DNA, chemistry not fully specified)
GROUP: bucket 1

SUBSTANCE: RPL9_+_39460483.23-P1P2_05: sgRNA targeting RPL9, GGATGTTTCGGTGCTCGTGG, SEQ ID NO: 52 (listed as DNA, chemistry not fully specified)
GROUP: bucket 2

SUBSTANCE: COX11_+_53045977.23-P1P2_05: sgRNA targeting COX11, GGCTCTGGCGTCTTGGATGG, SEQ ID NO: 144 (listed as DNA, chemistry not fully specified)
GROUP: bucket 3

Challenge: Please report the category associated with GINS1_−_25388381.23-P1P2_03: sgRNA targeting GINS1, GGACTATAACGAAAGGAGTG, SEQ ID NO: 96 (listed as DNA, chemistry not fully specified) , nothing else.
Response given: bucket 2

Challenge: Please let me know in which category the item RPS18_+_33239917.23-P1P2_04: sgRNA targeting RPS18, GCTGCGATCCCGCTGGATCA, SEQ ID NO: 44 (listed as DNA, chemistry not fully specified) belongs.
Response given: bucket 3

Challenge: Returns: class label. Input: POLR2H_+_184081251.23-P1P2_00: sgRNA targeting POLR2H, GGGGCCACGAGAGCAGCAGA, SEQ ID NO: 28 (listed as DNA, chemistry not fully specified)
Response given: bucket 1

Challenge: Hi, small favor: classify COX11_+_53045977.23-P1P2_00: sgRNA targeting COX11, GGCTCTGGCGTCCTGGATGG, SEQ ID NO: 141 (listed as DNA, chemistry not fully specified) by its Perturb-seq pooled growth sgRNA counts, d10 when you get a moment.
Response given: bucket 3

Challenge: Category of HSPA5_+_128003624.23-P1P2_01: sgRNA targeting HSPA5, GAACCGAGTAGGCGACGGTG, SEQ ID NO: 91 (listed as DNA, chemistry not fully specified) :
Response given: bucket 2

Challenge: Bin? BCR_+_23523092.23-P1P2_13: sgRNA targeting BCR, GCGCGCGGGGCCCATCTCAG, SEQ ID NO: 130 (listed as DNA, chemistry not fully specified)
Response given: bucket 3

Challenge: In plain terms, what class is GATA1_−_48645022.23-P1P2_00: sgRNA targeting GATA1, GTGAGCTTGCCACATCCCCA, SEQ ID NO: 119 (listed as DNA, chemistry not fully specified) ?
Response given: bucket 1
